# INHIBITION annotations
# System: Plasmodium berghei
# ASSAY: Screen against P. berghei liver stage (PbLuc), transformed with Luciferase, at 2uM
# Assay type: functional, HepG2
# RUN CONDITIONS: tested at 2 uM
The campaign covered roughly 68,000 compounds. About 2,700 (4%) showed an effect of 50% or more. This is one part of a sample in which strong results are shown more often than they occur.

| COMPOUND | INHIBITION / % |
| --- | --- |
| Fc1ccccc1-c1nnn(CCCc2nn[nH]n2)n1 | -1.29 |
| CC(C)COCCC(=O)Nc1c(-c2ccc(F)cc2)ncn1C | 60.43 |
| COc1cccc(CN2C[C@@H]3COC[C@]3(COCc3ccccn3)C2)c1 | 17.35 |
| CCn1c(CC2CCN(C(=O)c3cc(C(C)C)nn3C)CC2)n[nH]c1=O | 32.26 |
| Cn1cccc1C(=O)OCCNC(=O)c1ccccc1 | -9.17 |
| COCC(NC(=O)NCc1sccc1C)c1ccco1 (centres undefined) | -6.4 |
| COc1c(CNC2CCCN(c3ncccn3)C2)c(C(C)C)nn1C (centres undefined) | 56.02 |
| O=C(NCc1ccccc1)c1nc2c(o1)CN(C(=O)c1cccnc1)C2 | 36.75 |
| O=C(NC1CC1)[C@H]1C[C@@H]2CCN(Cc3ccc4c(c3)OCO4)C[C@@H]2O1 | 14 |
| Fc1cccc(CN2CCOC3(COCCN(CC4CC4)C3)C2)c1 (centres undefined) | 3.11 |
| COc1c(CNC2CCN(c3ncccn3)CC2)c(C(C)C)nn1C | -79.53 |
| Cc1ccc(N(CC(=O)c2ccc(Br)cc2)C2=NCCCCC2)cc1 | -13.56 |
| CS(=O)(=O)NCc1cnc2n1CCN(Cc1ccoc1)CC2 | 50.17 |
| Cc1ncc(CNC(=O)c2oc3ccccc3c2CN(C)C)s1 | -21.47 |
| CC1=Nc2c(c(O)nn2C2CCOCC2)C(c2cccnc2)S1 (centres undefined) | 18.76 |
| CS(=O)(=O)NCc1cnc2n1CCN(Cc1cccnc1)CC2 | 8.36 |
| COc1c(CNC2CCN(C(=O)C(C)C)CC2)c(C(C)C)nn1C | 11.2 |
| Cc1ccc2nnc(C(=O)NCCCn3cccn3)nc2c1 | -41.49 |
| CCOCC1CN(Cc2cnn(C)c2)Cc2c1cnn2CC (centres undefined) | -8.04 |
| Cc1nc2c(c(NC3CC3)n1)CCN(C(=O)CCO)CC2 | -10.44 |
| COc1c(CNC2CCC(O)CC2)c(C(C)C)nn1C (centres undefined) | 11.2 |
| CCn1c(CC2CCN(C(=O)c3cc(CC(C)C)on3)CC2)n[nH]c1=O | 55.25 |
| O=C(c1cn2ccsc2n1)N1CCN(CC2CC2)[C@@H]2CS(=O)(=O)C[C@@H]21 | -18.12 |
| O=C(CC1CCCO1)NCc1ccc(Br)cc1F (centres undefined) | -7.89 |

* * *

# System: Plasmodium berghei
# ASSAY: Screen against P. berghei liver stage (PbLuc), transformed with Luciferase, at 2uM
# Type: functional, HepG2
# RUN CONDITIONS: tested at 2 uM
Out of some 68,000 compounds screened, about 2,700 (4%) showed an effect of 50% or more. The list comes from a sample in which strong results are over-represented; it also holds close analogues and randomly drawn compounds.
Classification by INHIBITION | ranges: range A = under 10%, range B = from 10% up to 50%, range C = 50% and over

| COMPOUND | CAT |
| --- | --- |
| CCNC(c1ccc(Cl)cc1)c1cccnc1 (stereo not given) | range A |
| CNC(=O)CCS(=O)(=O)Cc1cc(Cl)c2c(c1)OCCCO2 | range B |
| COc1ccccc1C(=O)Nc1ccc(OC2CCN(C)CC2)cc1 | range C |
| O=C(Nc1ccc(Cl)cc1C(=O)NCCN1CCOCC1)c1ccco1 | range C |
| CCOC(=O)CC(c1ccc(OC)cc1)c1c(O)n[nH]c1C (stereo not given) | range A |
| NC(=O)c1nc(COc2ccc3c(c2)OCO3)no1 | range C |
| CCCNC(c1ccc(F)cc1)c1cccnc1 (stereo not given) | range B |
| Cc1nc(C2CCCN(C(=O)C3=NN(C(C)C)C(=O)CC3)C2)no1 (stereo not given) | range B |
| CNC(=O)c1nc(COc2ccc3c(c2)OCO3)no1 | range A |
| CCNC(c1ccc(C(C)C)cc1)c1cccnc1 (stereo not given) | range C |
| CN(C)C(=O)CCS(=O)(=O)Cc1cc(Cl)c2c(c1)OCCO2 | range B |
| Cc1ccccc1C(=O)Nc1ccc(OC2CCN(C)CC2)cc1 | range B |
| CS(=O)(=O)Cc1cc(Cl)c2c(c1)OCCCO2 | range B |
| CN1CCC(Oc2ccc(NC(=O)c3ccccc3Br)cc2)CC1 | range B |
| CCCNC(c1cccnc1)c1ccc(F)cc1F (stereo not given) | range A |
| Cc1ccc(C)c(C(=O)Nc2ccc(OC3CCN(C)CC3)cc2)c1 | range B |
| Fc1cc(Cl)cnc1N1CCCC(c2nccn2Cc2ccncc2)C1 (stereo not given) | range B |
| CC=C(C)C(=O)NS(=O)(=O)c1ccc(Cl)cn1 | range A |
| O=C(Nc1ccccc1C(=O)NCCN1CCOCC1)c1ccco1 | range A |
| CCc1nc(C2CCCN(C(=O)C3=NN(C(C)C)C(=O)CC3)C2)no1 (stereo not given) | range C |
| CCc1csc(C2CCCN(C(=O)C3=NN(CC)C(=O)CC3)C2)n1 (stereo not given) | range A |
| CCc1nc(C2CCCN(C(=O)C3=NN(CC)C(=O)CC3)C2)no1 (stereo not given) | range C |
| CS(=O)(=O)N[C@@H]1CN(C(=O)c2cccnc2)[C@@H]2CCCO[C@@H]21 | range A |
| CCCNC(c1cccnc1)c1ccc(F)c(C)c1 (stereo not given) | range C |
